Exercise: state measured pIC50 for each of the compounds provided.
Biological target: human CYP11B2 enzyme (Homo sapiens, UniProt P19099)
Construct: the ORF of human CYP11B1 or CYP11B2 were transfected into G402 cells
Sequence (P19099 25-503): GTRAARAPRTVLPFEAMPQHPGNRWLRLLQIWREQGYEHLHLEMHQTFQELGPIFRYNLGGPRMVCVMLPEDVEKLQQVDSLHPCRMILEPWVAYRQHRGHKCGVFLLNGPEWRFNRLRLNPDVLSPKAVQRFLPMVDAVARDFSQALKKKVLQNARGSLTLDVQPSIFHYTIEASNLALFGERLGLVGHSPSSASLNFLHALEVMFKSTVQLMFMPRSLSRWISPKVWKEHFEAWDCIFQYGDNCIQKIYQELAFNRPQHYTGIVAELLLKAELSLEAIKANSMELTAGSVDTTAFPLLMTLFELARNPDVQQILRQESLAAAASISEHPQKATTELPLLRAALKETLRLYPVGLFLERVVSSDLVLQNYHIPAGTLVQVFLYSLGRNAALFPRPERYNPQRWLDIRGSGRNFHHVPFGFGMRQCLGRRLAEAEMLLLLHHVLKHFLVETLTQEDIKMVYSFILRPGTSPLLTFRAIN
Assay: Enzyme inhibition activity assay in G402 cells stably expressing human CYP11B2 (aldosterone production from 11-DOC, LC/MS)
Conditions: 1 µM 11-DOC, 16 hours, aldosterone detected
Just so you know, pIC50 here is -log10 of the concentration in molar units; reply with that number alone.

For this compound ( CN(C)C(=O)N[C@@H]1CCCc2c(-c3ccc4c(c3)COC(=O)N4C)cncc21 ), measured pIC50 is 8.01

For this compound ( CCC(=O)N[C@@H]1CCCc2c(-c3ccc4c(c3)CCCC(=O)N4C)cncc21 ), measured pIC50 is 7.61

For this compound ( CCC(=O)NC1CCCc2c(-c3cnc4c(c3)CCCN4C(N)=O)cncc21 (stereo not shown) ), measured pIC50 is 7.77

For this compound ( CCC(=O)N[C@@H]1CCCc2c(-c3cc(F)c4c(ccc(=O)n4C)c3)cncc21 ), measured pIC50 is 7.95

For this compound ( C[C@@H](F)C(=O)N[C@@H]1CCCc2c(-c3ccc4c(c3)CCC(=O)N4C)cncc21 [Compound D07-P1] ), measured pIC50 is 7.47

For this compound ( [2H]C([2H])([2H])NC(=O)N[C@@H]1CCCc2c(-c3ccc4c(c3)OCC(=O)N4C)cncc21 ), measured pIC50 is 7.83

For this compound ( [2H]C([2H])([2H])NC(=O)N[C@@H]1CCCc2c(-c3ccc4c(c3)COC(=O)N4C)cncc21 ), measured pIC50 is 8.02

For this compound ( CCC(=O)N[C@@H]1CCOc2c(-c3cc(F)c4c(c3)cc(C#N)n4C)cncc21 ), measured pIC50 is 8.35

For this compound ( CCC(=O)N[C@@H]1CCOc2c(-c3ccc4c(c3)CCC(=O)N4C)cncc21 [Compound A02-P2] ), measured pIC50 is 7.91

For this compound ( [2H]C([2H])([2H])OC(=O)N[C@@H]1CCCc2c(-c3ccc4c(c3)CCC(=O)N4C)cncc21 ), measured pIC50 is 8.60

For this compound ( COC(=O)N[C@@H]1CCOc2c(-c3ccc4c(c3)CCC(=O)N4C)cncc21 ), measured pIC50 is 8.64

For this compound ( [2H]C([2H])([2H])OC(=O)N[C@@H]1CCOc2c(-c3ccc4c(c3)cc(C#N)n4C)cncc21 ), measured pIC50 is 8.89

For this compound ( CN1C(=O)CCc2cc(-c3cncc4c3CCC[C@H]4N3CCOC3=O)ccc21 ), measured pIC50 is 8.14

For this compound ( [2H]C([2H])([2H])NC(=O)N[C@@H]1CCOc2c(-c3ccc4c(c3)CCC(=O)N4C)cncc21 ), measured pIC50 is 8.14

For this compound ( COC(=O)N[C@@H]1CCOc2c(-c3ccc4c(c3)COC(=O)N4C)cncc21 ), measured pIC50 is 8.18

For this compound ( [2H]C([2H])([2H])OC(=O)N[C@@H]1CCOc2c(-c3ccc4c(ccc(=O)n4C)c3)cncc21 ), measured pIC50 is 8.00

* * *

Exercise: state measured IC50 for each of the molecules provided.
Biological target: human CYP11B2 enzyme (Homo sapiens, UniProt P19099)
Construct: the ORF of human CYP11B1 or CYP11B2 were transfected into G402 cells
Experiment: Enzyme inhibition activity assay in G402 cells stably expressing human CYP11B2 (aldosterone production from 11-DOC, LC/MS)
Conditions: 1 µM 11-DOC, 16 hours, aldosterone detected
Numbers only; they are read as nM.

For this molecule ( CCC(=O)N[C@@H]1CCOc2c(-c3cc(Cl)c4c(c3)cc(C#N)n4C)cncc21 ), measured IC50 is 11.6

For this molecule ( CN1C(=O)CCc2cc(-c3cncc4c3CCC[C@H]4N3CCC4(CC4)C3=O)ccc21 ), measured IC50 is 13

For this molecule ( COC(=O)N[C@@H]1CCCc2c(-c3cc(Cl)c4c(ccc(=O)n4C)c3)cncc21 ), measured IC50 is 4.4

For this molecule ( [2H]C([2H])([2H])OC(=O)N[C@@H]1CCCc2c(-c3cc(Cl)c4c(ccc(=O)n4C)c3)cncc21 ), measured IC50 is 5.9

For this molecule ( COCC(=O)N[C@@H]1CCCc2c(-c3ccc4c(c3)CCC(=O)N4C)cncc21 ), measured IC50 is 8.2

For this molecule ( CCC(=O)N[C@@H]1CCCc2c(-c3ccc4c(ccc(=O)n4C)c3F)cncc21 ), measured IC50 is 33

For this molecule ( CCNC(=O)N[C@@H]1CCCc2c(-c3ccc4c(c3)CCC(=O)N4C)cncc21 ), measured IC50 is 28.2

For this molecule ( CCC(=O)N[C@@H]1COCc2c(-c3ccc4c(c3)CCC(=O)N4C)cncc21 ), measured IC50 is 41.7

For this molecule ( COC(=O)N[C@@H]1CCOc2c(-c3cc(F)c4c(ccc(=O)n4C)c3)cncc21 ), measured IC50 is 14.9

For this molecule ( [2H]C([2H])([2H])NC(=O)N[C@@H]1CCCc2c(-c3ccc4c(c3)CCC(=O)N4C)cncc21 ), measured IC50 is 11

For this molecule ( CNC(=O)N[C@@H]1CCOc2c(-c3ccc4c(c3)cc(C#N)n4C)cncc21 ), measured IC50 is 2.5

For this molecule ( [2H]C([2H])([2H])OC(=O)N[C@@H]1CCCc2c(-c3ccc4c(c3)OCC(=O)N4C)cncc21 ), measured IC50 is 8.8

For this molecule ( CCC(=O)N[C@@H]1CCCc2c(-c3cc(C)c4c(ccc(=O)n4C)c3)cncc21 ), measured IC50 is 16.7

For this molecule ( CN(C)C(=O)N[C@@H]1CCOc2c(-c3ccc4c(c3)CCC(=O)N4C)cncc21 ), measured IC50 is 12.6

For this molecule ( COC(=O)N[C@@H]1CCCc2c(-c3ccc4c(c3)CCC(=O)N4C)cncc21 ), measured IC50 is 3.4

For this molecule ( [2H]C([2H])([2H])NC(=O)N[C@@H]1CCOc2c(-c3ccc4c(c3)OCC(=O)N4C)cncc21 ), measured IC50 is 34.7

* * *

Assay: Pharmacokinetic determination in mice after gavage administration (P.O.)
Format: in vivo
Conditions: male, CD-1, mouse, po, 10 mg/kg, plasma, read-out: AUC0-24
Mark yes (1) only when AUC(0-t) stays strictly below 200 µM·h. Values equal to the cut-off are no (0).

Challenge: hey, is AUC(0-t) for CCC(=O)N[C@@H]1CCCc2c(-c3cc(F)c4c(ccc(=O)n4C)c3)cncc21 lower than 200 µM·h or not?
Response given: no (0)

Challenge: hey, is AUC(0-t) for [2H]C([2H])([2H])NC(=O)N[C@@H]1CCCc2c(-c3ccc4c(c3)COC(=O)N4C)cncc21 lower than 200 µM·h or not?
Response given: yes (1)

Challenge: hey, is AUC(0-t) for [2H]C([2H])([2H])OC(=O)N[C@@H]1CCOc2c(-c3cc(F)c4c(ccc(=O)n4C)c3)cncc21 lower than 200 µM·h or not?
Response given: yes (1)

Challenge: hey, is AUC(0-t) for CCC(=O)N[C@@H]1CCCc2c(-c3cc(F)c4c(c3)COC(=O)N4C)cncc21 lower than 200 µM·h or not?
Response given: no (0)

Challenge: hey, is AUC(0-t) for CCC(=O)N[C@@H]1CCCc2c(-c3ccc4c(c3)CCC(=O)N4C)cncc21 [Control Compound, reference compound] lower than 200 µM·h or not?
Response given: yes (1)

Challenge: hey, is AUC(0-t) for CCC(=O)N[C@@H]1CCCc2c(-c3ccc4c(c3)COC(=O)N4C)cncc21 lower than 200 µM·h or not?
Response given: no (0)
